Entry source: paper PMC3021526

assay_system: T1, MUC1 15 aa peptide with cysteine (APDTRPAPGSTAPPA-C) (Homo sapiens (synthetic peptide))
T1 construct: 15 residues of the tandem repeat (VNTR) of human MUC1; added C-terminal cysteine, used for coupling to the chip; also called MUC1 peptide; MUC1 peptide antigen
T1 chain: APDTRPAPGSTAPPAC
test_method_notes: SPR; Biacore 2000; about 50 RU MUC1 15 aa peptide with cysteine coupled on a CM5 chip (NHS/EDC, PDEA); serial dilutions of scFv (0-400 nM) at 50 µL/min; 1:1 Langmuir separate fitting; IIB6 by steady-state model
condition_set: both partners purified
Recorded kon by entry
measurement_kind: kon (M⁻¹ s⁻¹)

1) affinity matured anti-MUC1 scFv HT186-G2 (scFv, V domains shown, From IIB6 by error-prone PCR (library A), off-rate panning; source: E. coli, IMAC purified; also culture supernatant from microtitre plates; not shown: c-myc, C-terminal, kept) VH: RMQLVQSGAEVKKPGASVKLSCKASGYTFAGHYMHWVRQAPGRGLEWMGWIDPVTGGTKYAQNFQGWVTMTRDTSIRTAYMELSRLRSDDTAMYYCAREVTGDRGQFDKWGQGTLVTVAS VL: QSVLTQPPSVSVAPGKTARITCGGNNIGSKSVHWYQQKPGQAPVLVIYYGSDRSSGIPERFSGSNSGNTATLTISRVEAGDEADYYCQVWDSSSDWVFGGGTKLTVL ... 72000
2) affinity matured anti-MUC1 scFv HT220-M-G8 (scFv, V domains shown, source: E. coli, IMAC purified; also culture supernatant from microtitre plates; not shown: c-myc, C-terminal, kept) VH: QMQLVQSGAEVMKPGASVKVSCKASGYSFTGHYMHWVRHAPGQGLEWMGWIDPVTGSTKYAQNFQGWVTMTRDTSISTAYMELSRLRSDDTAMYYCAREVTGDRGQFDKWGQGTLVTVAS VL: QSVLTQPPSVSVAPGKTARITCGGNNIGSKSVHWYQQKPGQAPVLVIYYGSDRPSGIPERFSGSNTGNMATLTISRVEAGDEADYYCQVWDSSSDWVFGGGTKLTVL ... 50000
3) affinity matured anti-MUC1 scFv HT220-M-D1 (scFv, V domains shown, one potential N-glycosylation site in CDR2; source: E. coli, IMAC purified; also culture supernatant from microtitre plates; not shown: c-myc, C-terminal, kept) VH: QMLLVQSGAEAKKPGASVKVSCKASGYTFTGHYMHWVRQAPGQGLEWMGWIDPVTGGTKYAQNFQGWVTMTRDTSIRTAYMELSRLRPDDTAMYYCAREVTGDRGQFDKWGQGTLVTVAS VL: QSVLTQPPSVSVVPGKTARIICGGNNIGSKSVHWYQQKPGQAPVLVIYNNSDRPSGIPERFSGSNSGNMATLTISRVEAGDESDYYCQVWDSSSDWVFGGGTRLTIL ... 29000
